Let's go through some Kd measurements on CalO2 (Micromonospora echinospora, UniProt Q8KND6) together.
In your response, the unit should come after the numeric value.

// worked examples, Kd included
| COMPOUND | RESULT |
| --- | --- |
| CC(=O)NCCSC(=O)c1c(C)cc(O)cc1O [compound 11] | 170 µM |
| CC(=O)NCCSC(=O)c1ccccc1O [compound 14] | 405 µM |

Alright, here's another compound for you.
Case CC(=O)NCCSC(=O)c1cccc(I)c1 [compound 13] , CalO2 (Micromonospora echinospora, UniProt Q8KND6), Kd recorded as 120 µM
